- ASSAY TEXT: total protein half-life in vivo (active degradation + dilution); higher = more stable protein
- CONDITION NOTES: wild type E. coli NCM3722; growth: P-lim chemostat; doubling time 6 h
OBSERVABLE: total protein half-life in vivo (h)

[
  {
    "SEQUENCE CHAIN": "MKTETPSVKIVAITADEAGQRIDNFLRTQLKGVPKSMIYRILRKGEVRVNKKRIKPEYKLEAGDEVRIPPVRVAEREEEAVSPHLQKVAALADVILYEDDHILVLNKPSGTAVHGGSGLSFGVIEGLRALRPEARFLELVHRLDRDTSGVLLVAKKRSALRSLHEQLREKGMQKDYLALVRGQWQSHVKSVQAPLLKNILQSGERIVRVSQEGKPSETRFKVEERYAFATLVRCSPVTGRTHQIRVHTQYAGHPIAFDDRYGDREFDRQLTEAGTGLNRLFLHAAALKFTHPGTGEVMRIEAPMDEGLKRCLQKLRNAR [P0AA39]",
    "OBSERVABLE": "total protein half-life in vivo",
    "RECORDED VALUE": 5.56
  },
  {
    "SEQUENCE CHAIN": "MTTKRKPYVRPMTSTWWKKLPFYRFYMLREGTAVPAVWFSIELIFGLFALKNGPEAWAGFVDFLQNPVIVIINLITLAAALLHTKTWFELAPKAANIIVKDEKMGPEPIIKSLWAVTVVATIVILFVALYW [P0A8Q0]",
    "OBSERVABLE": "total protein half-life in vivo",
    "RECORDED VALUE": 5.09
  },
  {
    "SEQUENCE CHAIN": "MPALDLIRPSVTAMRVIASVNADFARELKLPPHIRSLGLISADSDDVTYIAADEATKQAMVEVVYGRSLYAGAAHGPSPTAGEVLIMLGGPNPAEVRAGLDAMIAHIENGAAFQWANDAQDTAFLAHVVSRTGSYLSSTAGITLGDPMAYLVAPPLEATYGIDAALKSADVQLATYVPPPSETNYSAAFLTGSQAACKAACNAFTDAVLEIARNPIQRA",
    "OBSERVABLE": "total protein half-life in vivo",
    "RECORDED VALUE": 6.15
  }
]
